Task for the reader: assign each of the following molecules its reported IC50.
- MEASURED ON: UniProtKB P35408
- TEST METHOD NOTES: hEP4 b-arrestin assay (PathHunter HEK 293 PTGER4 b-arrestin cells)
- Assay type: cell-based
- EXPERIMENTAL SETUP: hEP4 b-arrestin assay (values without asterisk)
Answers are plain numbers, in µM.

Consider the following illustrative entries.
CCCC(=O)OCOC(=O)c1sc(-c2cc(NCCn3c(C#N)cc4c(OC)ccc(F)c43)ncn2)cc1OCC = 0.004
CCOc1cc(-c2cc(NCCn3c(C)cc4c(OC)ccc(F)c43)ncn2)sc1C(=O)NS(C)(=O)=O = 0.018

Each molecule below has a recorded value; state its IC50.
1. COc1ccc(F)c2c1cc(C#N)n2CCNc1cc(-c2ccc3oc(=O)n(C)c3c2)ncn1
2. CCOC(=O)Cc1ccc(-c2cc(NCCn3c(C)cc4c(OC)ccc(F)c43)ncn2)cc1
3. CCOc1cc(-c2cc(NCCn3c(C#N)cc4c(C)c(F)cc(F)c43)ncn2)sc1C(=O)O
4. COc1ccc(F)c2c1cc(C#N)n2CCNc1cc(-c2cc(Cl)c(C(=O)O)c(OCC(C)C)c2)ncn1
5. CCOc1cc(-c2cc(NCCn3c(C#N)cc4c(Cl)cccc43)ncn2)sc1C(=O)O
6. COc1ccc(F)c2c1cc(C#N)n2CCNc1cc(-c2ccc(NC=O)cc2)ncn1

### Response
[0.049, 0.453, 0.003, 0.005, 0.014, 0.024]

----------
- MEASURED ON: EP4 (Homo sapiens (Human))
- Sequence (P35408 whole entry): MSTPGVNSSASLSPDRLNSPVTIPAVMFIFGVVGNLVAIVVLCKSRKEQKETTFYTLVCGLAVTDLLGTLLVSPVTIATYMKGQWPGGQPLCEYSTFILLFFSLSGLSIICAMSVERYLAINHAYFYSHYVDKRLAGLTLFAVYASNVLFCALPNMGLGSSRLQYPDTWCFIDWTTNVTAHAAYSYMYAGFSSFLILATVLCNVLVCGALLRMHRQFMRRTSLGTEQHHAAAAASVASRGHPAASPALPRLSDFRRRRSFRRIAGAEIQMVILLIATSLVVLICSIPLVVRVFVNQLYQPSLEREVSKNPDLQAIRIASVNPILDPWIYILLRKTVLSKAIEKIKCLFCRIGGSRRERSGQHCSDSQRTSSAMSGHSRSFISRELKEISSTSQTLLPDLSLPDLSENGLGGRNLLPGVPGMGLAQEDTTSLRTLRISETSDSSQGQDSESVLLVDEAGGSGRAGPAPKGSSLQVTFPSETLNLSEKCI
- TEST METHOD NOTES: hEP4 cAMP assay (BT549 breast cancer cells, HTRF cAMP)
- Type: cell-based
- EXPERIMENTAL SETUP: antagonistic activity; mean values where measured multiple times
- Procedure: Plate is pre-incubated 45 minutes at room temperature. Subsequently, 2.5 microliters of PGE2 (final conc. 6 nM) are transferred into the assay plate. Plate is incubated 30 minutes at room temperature.
QUANTITY: pIC50
One number for each entry, as −log10 of the molar value.

CCCOc1cc(-c2cc(NCCn3c(C)cc4c(C)cc(F)cc43)ncn2)cc(Cl)c1C(=O)O = 6.85
CCCCOc1cc(-c2cc(NCCn3c(C)cc4c(C)ccc(F)c43)ncn2)ccc1C(=O)O = 7.06
COc1ccc(F)c2c1cc(C)n2CCNc1cc(-c2ccc(-c3nnc(C)o3)c(F)c2)ncn1 = 6.81

### Prompt Tell me the measured pIC50 of CCc1cc(-c2cc(NCCn3c(C)cc4c(OC)cc(F)cc43)ncn2)cc(Cl)c1C(=O)O , please.
### Response 6.97

----------
Task for the reader: assign each of the following molecules its reported IC50.
- MEASURED ON: PTGER2 (EP2) (Homo sapiens (Human))
- Sequence (P43116 whole entry): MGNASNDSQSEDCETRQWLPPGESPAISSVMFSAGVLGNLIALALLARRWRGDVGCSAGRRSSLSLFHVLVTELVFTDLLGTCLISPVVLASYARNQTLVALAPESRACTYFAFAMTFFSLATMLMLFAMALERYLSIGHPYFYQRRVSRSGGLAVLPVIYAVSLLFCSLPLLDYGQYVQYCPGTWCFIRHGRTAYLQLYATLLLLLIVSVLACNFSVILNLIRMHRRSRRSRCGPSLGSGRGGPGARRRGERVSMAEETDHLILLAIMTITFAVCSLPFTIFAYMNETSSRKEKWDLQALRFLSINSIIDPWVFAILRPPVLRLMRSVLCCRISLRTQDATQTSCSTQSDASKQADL
- TEST METHOD NOTES: hEP2 b-arrestin assay (PathHunter HEK 293 PTGER2 b-arrestin cells)
- Type: cell-based
- EXPERIMENTAL SETUP: antagonistic activity on hEP2; mean where measured multiple times
Answers are plain numbers, in nM.

Consider the following illustrative entries.
COc1cccc2c1cc(C)n2CCNc1cc(-c2ccc3c(c2)CN(C)C3=O)ncn1 = 121
COc1ccc(F)c2c1cc(C)n2CCNc1cc(-c2ccc3[nH]cnc3c2)ncn1 = 16
COc1ccc(F)c2c1cc(C)n2CCNc1cc(-c2ccc3c(c2)CCN3)ncn1 = 10

Turning now to a further molecule:
### Prompt Tell me the measured IC50 of CSc1cc(-c2cc(NCCn3c(C)cc4c(C)c(F)cc(Cl)c43)ncn2)cc(Cl)c1C(=O)O , please.
### Response 98
